Tested on: T1, Human PD-1 expressed on CHO-K1 cells (CHO-K1/hPD-1) (human, UniProt Q15116 25-288)
T1 construct: whole, on cells; also called CHO-K1 cells overexpressing human PD-1
T1 sequence (Q15116 25-288): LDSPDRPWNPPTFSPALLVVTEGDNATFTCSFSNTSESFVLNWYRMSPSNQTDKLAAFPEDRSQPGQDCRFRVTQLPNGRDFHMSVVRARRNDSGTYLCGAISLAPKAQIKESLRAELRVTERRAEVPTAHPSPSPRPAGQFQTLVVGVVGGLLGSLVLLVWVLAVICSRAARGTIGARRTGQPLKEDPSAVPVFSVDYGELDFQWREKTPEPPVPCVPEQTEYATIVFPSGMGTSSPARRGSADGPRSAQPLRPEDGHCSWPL
Run description: FACS, CHO-K1/hPD-1 cells
Method: In order to investigate the in vitro binding activity of the PD-1 antigen-binding proteins to human/cynomolgus monkey PD-1, the binding assay at the cellular level was performed using a CHO-K1 cell strain overexpressing human or cynomolgus monkey PD-1 (CHO-K1/hPD-1 or CHO-K1/cyno PD-1, from GenScript). […] Finally, the cells in each well were resuspended in 200 μL of pre-cooled PBS, and the fluorescence signal values were read using a BD FACS CANTOII.
Measure name: MFI Maximum
One number for each entry.

[
  {
    "Binder": "PR005090 (VHH, Monovalent single-domain (VH) antibody with Flag-6His tag) VHH: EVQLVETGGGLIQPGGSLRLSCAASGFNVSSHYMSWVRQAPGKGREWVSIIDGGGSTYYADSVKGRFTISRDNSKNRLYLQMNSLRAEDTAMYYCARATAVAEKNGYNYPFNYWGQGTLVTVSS",
    "Observed": 4150
  },
  {
    "Binder": "PR005097 (VHH, Monovalent single-domain (VH) variant of PR002481 with Flag-6His tag) VHH: EVQLVETGGGLIQPGGSLRLSCAASGFNVSSHYMSWVRQAPGKGREWVSIIDGGGSTYYADSVKGRFTISRDNSKNRLYLQMNSLRAEDTAMYYCARATAVREKNGYNYPFNYWGQGTLVTVSS",
    "Observed": 4080
  },
  {
    "Binder": "PR005098 (VHH, Monovalent single-domain (VH) variant of PR002481 with Flag-6His tag) VHH: EVQLVETGGGLIQPGGSLRLSCAASGFNVSSHYMSWVRQAPGKGREWVSIIDGGGSTYYADSVKGRFTISRDNSKNRLYLQMNSLRAEDTAMYYCARATQVREKGGYNYPFNYWGQGTLVTVSS",
    "Observed": 5720
  }
]

stdin: Item under review: PR005101 (VHH, Monovalent single-domain (VH) variant of PR002481 with Flag-6His tag) VHH: EVQLVETGGGLIQPGGSLRLSCAASGFNVSSHYMSWVRQAPGKGREWVSIIDKGGGTYYADSVKGRFTISRDNSKNRLYLQMNSLRAEDTAMYYCARATAVAEKNGYNYPFNYWGQGTLVTVSS . Reported MFI Maximum?
stdout: 6900
